These measurements were taken from ChEMBL document CHEMBL4888484.

# Test system: Plasmodium falciparum
# protocol.details: Primary screen in NF54 nanoGlo assay, in single point, at 2uM, 72h; a lower Z score goes with more inhibition
# Format: functional, Erythrocyte
# assay.setup: timepoint 72 hour
Hit rate of the full screen: of about 150,000 compounds, about 540 (0.36%) showed an effect of 50% or more. Many of the other results were omitted from the sample, so strong results are more common in it than they were.
Please enter YES where Z score is greater than or equal to 0.6, and NO where it is lower.

Examples with answers:
Tell me whether Z score is at least 0.6 here: "Cc1ccc([N+]2=C3CCCCCN3C[C@]2(O)c2ccc(OC(F)F)cc2)cc1"
YES

Tell me whether Z score is at least 0.6 here: "CCOC[C@H]1CCN(C(=O)C2(O)CN(C(=O)OC(C)(C)C)C2)C1"
YES

Tell me whether Z score is at least 0.6 here: "CN1CC2(CCN(C(=O)c3ccccc3O)CC2)C[C@@H](c2ccccc2)C1=O"
YES

Tell me whether Z score is at least 0.6 here: "O=C(C[n+]1nc(-c2n[n+](CC(=O)c3ccccc3)c3n2CCCCC3)n2c1CCCCC2)c1ccccc1"
NO

Tell me whether Z score is at least 0.6 here: "Cc1c(C)n(C[C@@H](O)CNC2CCCC2)c2c(Cl)cccc12"
NO

Tell me whether Z score is at least 0.6 here: "Cc1ccc(-c2c[n+](-c3ccc(OC(F)F)cc3)c3n2CCCCC3)cc1"
NO

Tell me whether Z score is at least 0.6 here: CCOC1CC(N(C)S(=O)(=O)c2cnc(C)s2)C12CCC2 (stereo not given)
YES

Tell me whether Z score is at least 0.6 here: "CN(CC(c1ccccc1)c1ccccc1)[C@H]1COC[C@@H]1O"
YES

Tell me whether Z score is at least 0.6 here: "CC1(C)CO[C@@H](CC(=O)N2CCOC3(CCS(=O)(=O)CC3)C2)C1"
NO

Let us examine a further case.
Tell me whether Z score is at least 0.6 here: "COc1ccc(C(=O)C[n+]2cc(-c3cccc(Br)c3)n(C)c2N)cc1"
NO
